Origin of the recorded values: patent US12473298B2

- test_protocol: Pharmacokinetic experiment in rats
- Type: in vivo, SD rats
- test_conditions: male, SD, rat, in vivo, po, 20 mg/kg
quantity: AUC (ng·h/mL)
Hi! Could you send only the number? It should be in ng·h/mL, unit omitted.

Need AUC, item `CCN1CCC2(CC1)CN(C)c1cc(-c3cc(C(=O)NCc4c(C)cc(C)[nH]c4=O)c(C)c(N(CC)C4CCOCC4)c3)ccc12`
1260

Need AUC, item `CCN(c1cc(-c2ccc3c(c2)C=CC32CCN(C(C)C)CC2)cc(C(=O)NCc2c(OC)cc(C)[nH]c2=O)c1C)C1CCOCC1`
1540

Need AUC, item `CCN(c1cc(-c2ccc3c(c2)NC(=O)C32CCN(C3COC3)CC2)cc(C(=O)NCc2c(C)cc(C)[nH]c2=O)c1C)C1CCOCC1`
1190

* * *

- target_entity: wild-type EZH2 (Homo sapiens (Human), UniProt Q15910)
- Sequence (Q15910 whole entry): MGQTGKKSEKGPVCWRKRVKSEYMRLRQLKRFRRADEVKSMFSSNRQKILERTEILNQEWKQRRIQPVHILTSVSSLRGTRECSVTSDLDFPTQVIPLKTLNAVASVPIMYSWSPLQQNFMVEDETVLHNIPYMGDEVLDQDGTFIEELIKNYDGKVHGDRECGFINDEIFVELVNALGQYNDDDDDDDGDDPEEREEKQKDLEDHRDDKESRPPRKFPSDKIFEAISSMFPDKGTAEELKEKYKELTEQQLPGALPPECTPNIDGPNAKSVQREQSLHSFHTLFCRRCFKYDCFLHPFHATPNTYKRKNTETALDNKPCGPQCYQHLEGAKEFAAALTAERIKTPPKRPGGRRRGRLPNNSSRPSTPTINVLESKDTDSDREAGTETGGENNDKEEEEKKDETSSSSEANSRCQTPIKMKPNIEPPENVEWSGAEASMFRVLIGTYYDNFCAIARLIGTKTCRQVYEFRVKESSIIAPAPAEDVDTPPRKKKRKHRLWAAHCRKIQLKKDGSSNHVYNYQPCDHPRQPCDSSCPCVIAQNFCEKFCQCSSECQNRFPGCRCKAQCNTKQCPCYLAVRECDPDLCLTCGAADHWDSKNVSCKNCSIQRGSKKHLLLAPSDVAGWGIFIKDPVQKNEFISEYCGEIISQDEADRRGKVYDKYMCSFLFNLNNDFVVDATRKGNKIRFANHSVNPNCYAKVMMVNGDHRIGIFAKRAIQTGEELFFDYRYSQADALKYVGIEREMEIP
- Sequence (O75530 whole entry partner): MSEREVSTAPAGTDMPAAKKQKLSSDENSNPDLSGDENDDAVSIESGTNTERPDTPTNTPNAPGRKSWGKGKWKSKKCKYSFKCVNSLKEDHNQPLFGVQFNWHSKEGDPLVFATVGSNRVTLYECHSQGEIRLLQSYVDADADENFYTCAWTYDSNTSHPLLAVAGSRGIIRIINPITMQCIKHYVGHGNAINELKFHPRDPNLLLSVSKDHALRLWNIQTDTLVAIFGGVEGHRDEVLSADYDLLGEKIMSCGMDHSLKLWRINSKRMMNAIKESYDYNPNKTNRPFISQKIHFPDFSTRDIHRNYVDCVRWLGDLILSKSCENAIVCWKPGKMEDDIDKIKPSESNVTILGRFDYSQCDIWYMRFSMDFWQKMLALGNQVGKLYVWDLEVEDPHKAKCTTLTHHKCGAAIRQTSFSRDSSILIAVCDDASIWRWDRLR
- Sequence (Q15022 whole entry partner): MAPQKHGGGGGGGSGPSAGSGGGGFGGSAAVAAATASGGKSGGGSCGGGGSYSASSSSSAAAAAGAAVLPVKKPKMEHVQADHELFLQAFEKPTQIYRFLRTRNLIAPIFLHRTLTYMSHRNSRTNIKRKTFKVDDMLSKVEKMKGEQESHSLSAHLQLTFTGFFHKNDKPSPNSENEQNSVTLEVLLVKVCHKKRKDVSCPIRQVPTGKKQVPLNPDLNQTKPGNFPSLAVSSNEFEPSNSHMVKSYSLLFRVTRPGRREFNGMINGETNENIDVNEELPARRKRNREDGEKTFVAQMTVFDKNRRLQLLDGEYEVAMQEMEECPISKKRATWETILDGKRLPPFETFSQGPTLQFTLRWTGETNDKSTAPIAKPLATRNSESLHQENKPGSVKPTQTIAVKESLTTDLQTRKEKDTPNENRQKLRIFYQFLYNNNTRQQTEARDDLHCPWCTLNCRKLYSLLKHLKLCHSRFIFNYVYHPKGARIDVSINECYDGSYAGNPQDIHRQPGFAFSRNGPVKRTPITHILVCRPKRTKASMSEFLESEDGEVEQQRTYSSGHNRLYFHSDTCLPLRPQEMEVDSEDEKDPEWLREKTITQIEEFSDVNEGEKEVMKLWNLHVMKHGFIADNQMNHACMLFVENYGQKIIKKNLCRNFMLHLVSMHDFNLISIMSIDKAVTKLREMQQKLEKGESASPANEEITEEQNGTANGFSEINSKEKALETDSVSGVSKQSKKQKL
- test_protocol: radiometric assay, activity to wild-type EZH2 of PRC2
- test_conditions: read-out: Wild-type EZH2 IC50 Nanomoles per Liter
quantity: IC50 (nM)
Hi! Could you send only the number? It should be in nM, unit omitted.

These solved cases illustrate the format of a correct answer.
{"compound": "CCN(c1cc(-c2ccc3c(c2)NC(=O)C32CCOCC2)cc(C(=O)NCc2c(C)cc(C)[nH]c2=O)c1C)C1CCS(=O)(=O)CC1 [Example 96]", "unit_abbrev": "nM", "IC50": 1.24}
{"compound": "CCN(c1cc(-c2ccc3c(c2)NC(=O)C32CCC(C)(O)CC2)cc(C(=O)NCc2c(C)cc(C)[nH]c2=O)c1C)C1CCOCC1 (stereo not drawn) [Example 93]", "unit_abbrev": "nM", "IC50": 1.12}

Need IC50, item CCN(c1cc(-c2cc3c(cc2F)C2(CCOCC2)CC3)cc(C(=O)NCc2c(OC)cc(C)[nH]c2=O)c1C)C1CCOCC1 [Example 17]
1.1

* * *

- test_protocol: Pharmacokinetic experiment in rats
- Format: in vivo, SD rats
- test_conditions: male, SD, rat, plasma; rats, oral 20 mg/kg vs intravenous 4 mg/kg; read-out: Bioavailability (P %)
quantity: bioavailability (%)
Hi! Could you send only the number? It should be in %, unit omitted.

These solved cases illustrate the format of a correct answer.
{"compound_structure_string": "CCN(c1cc(-c2cc3c(cc2F)CCC32CCOCC2)cc(C(=O)NCc2c(C)cc(C)[nH]c2=O)c1C)C1CCOCC1", "bioavailability, %": 28.7}
{"compound_structure_string": "CCN(c1cc(-c2ccc3c(c2)N(CCC(F)(F)F)C(=O)C32CCOCC2)cc(C(=O)NCc2c(C)cc(C)[nH]c2=O)c1C)C1CCOCC1", "bioavailability, %": 26.8}

Next, consider the following compound.
Need bioavailability, item `CCN(c1cc(-c2ccc3c(c2)C2(CCOCC2)C(=O)N3C)cc(C(=O)NCc2c(OC)cc(C)[nH]c2=O)c1C)C1CCN(CC(F)(F)F)CC1`
53.3

* * *

Listing of entries alongside the reported Cmax.
- test_protocol: Pharmacokinetic experiment in rats
- Assay type: in vivo, SD rats
- test_conditions: male, SD, rat, plasma; rats, Oral-Dose 20 mg/kg; read-out: Blood Drug level (Cmax, ng/mL)
Hi! Could you send only the number? It should be in ng/mL, unit omitted.

These solved cases illustrate the format of a correct answer.
{"compound": "CCN(c1cc(-c2ccc3c(c2)N(CCOC)C(=O)C32CCOCC2)cc(C(=O)NCc2c(C)cc(C)[nH]c2=O)c1C)C1CCOCC1 [Example 45]", "quantity": "Cmax", "observed": 505}
{"compound": "CCN(c1cc(-c2ccc3c(c2)N(C)C(=O)C32CCN(C(=O)OC)CC2)cc(C(=O)NCc2c(C)cc(C)[nH]c2=O)c1C)C1CCOCC1 [Example 32]", "quantity": "Cmax", "observed": 431}
{"compound": "CCN(c1cc(-c2cc3c(cc2F)CCC32CCOCC2)cc(C(=O)NCc2c(OC)cc(C)[nH]c2=O)c1C)C1CCOCC1 [Example 16]", "quantity": "Cmax", "observed": 480}

Need Cmax, item CCN(c1cc(-c2ccc3c(c2)N(CC(F)(F)F)C(=O)C32CCOCC2)cc(C(=O)NCc2c(C)cc(C)[nH]c2=O)c1C)C1CCOCC1 [Example 13]
433

Need Cmax, item CCN(c1cc(-c2cc3c(cc2F)CCC32CCOCC2)cc(C(=O)NCc2c(C)cc(C)[nH]c2=O)c1C)C1CCOCC1 [Example 24]
479

Need Cmax, item CCN1C(=O)C2(CCOCC2)c2ccc(-c3cc(C(=O)NCc4c(C)cc(C)[nH]c4=O)c(C)c(N(CC)C4CCOCC4)c3)cc21 [Example 18]
472
